# System: CD2F1 mice, L1210 leukemia ip, survival T/C
# assay-notes: NCI In Vivo Anticancer Drug Screen. Data for tumor model L1210 Leukemia (intraperitoneal) in CD2F1 (CDF1) mice
# reported-conditions: endpoint: mean survival time; dose: 200.0 mg/kg/injection; schedule: Q04DX003 (ip); vehicle: saline with Tween-80; higher = longer survival
Inconclusive results and toxic doses are left out.
Reported T/C values are given for each entry in this list.

Record excerpt, results attached:
NNC(=O)c1ccc(C(=O)NN)cc1    96 % of control
Cc1cc(C)c(N)c(Br)c1C    100 % of control
CCC1OC2CS(=O)(=O)CC2O1 (configuration not stated)    96 % of control
CC1(CC#N)CO1 (configuration not stated)    96 % of control

T/C measured on `CN(C)/C=N/c1c(CO)c(-c2ccccc2)nn1-c1ccccc1` = 95 % of control

Input `CCN(CC)CCNCCCNCCN(CC)CC` . Output T/C: 95 % of control

For CCOC(=O)C(C(C)=O)C(=O)/C=C/c1ccccc1 (configuration not stated) the molecule record lists T/C as 103 % of control
